Reported folding stability dG values for a set of variants
B1: 5KPH (parent)
chain: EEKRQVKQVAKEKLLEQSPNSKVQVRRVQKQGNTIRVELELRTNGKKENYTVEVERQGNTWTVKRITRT

# Variants of: B1
# TEST_DETAILS: folding stability dG (cDNA display proteolysis); higher = more stable
# MEASUREMENT_CONTEXT: PBS, room temperature
Phrase the answer as number then unit, nothing more needed.

Below: 10 variants and their reported folding stability dG.
R56F	3.83 kcal/mol
Q8E	3.74 kcal/mol
L41V	4.07 kcal/mol
Q8T	3.51 kcal/mol
K13D	1.86 kcal/mol
K64S	3.94 kcal/mol
S18T	3.35 kcal/mol
S21W	2.89 kcal/mol
R65H	3.58 kcal/mol
E53S	3.33 kcal/mol

## Input Fill blank: measured folding stability dG of the variant V25G is ____.
## Output 1.64 kcal/mol

## Input Fill blank: measured folding stability dG of the variant S21F is ____.
## Output 2.65 kcal/mol
